Measured Kd values are reported for all entries that follow.
target: T1, RSV prefusion F (preF), subtype B (respiratory syncytial virus subtype B); experiment: BLI, IgG
T1 construct: also called Prefusion subtype B

BINDER	Kd
ADI-24799 (antibody, V domains shown, full-length IgG) VH: EVQLVESGGGLVKPGGSLRLSCAASGFTFSSYSMNWVRQAPGKGLEWVSSISSSSSYIYYADSVKGRFTISRDNAKNSLYLQMNSLRAEDTAVYYCAREGRDGYNYYFDYWGQGTLVTVSS VL: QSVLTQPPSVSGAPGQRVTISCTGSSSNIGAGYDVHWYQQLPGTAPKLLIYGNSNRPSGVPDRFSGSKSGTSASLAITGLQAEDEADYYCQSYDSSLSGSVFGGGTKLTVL	19 nM
ADI-14365 (antibody, V domains shown, full-length IgG; also called Ab 33) VH: QVQLVQSGAEVKKPGASVKVSCKVSGYTLTKLSMHWVRQAPGKGLEWMGFFDPEDGDTLYAQKFQGRVTMTEDTSSDTPYMELRSLRSEDTAVYYCASPAAAGQFDYWGQGTLVTVSS VL: DIVMTQSPSSLSASVGDRVTITCRASQFISSYLHWYQQKTGKAPKLLIYAASSLQSGVPSRFSGSGSGTDFTLTISSLQPEDFATYYCQQSYNTPRTFGQGTKLEIK	0.962 nM
ADI-24857 (antibody, V domains shown, full-length IgG) VH: EVQLLESGGGLVKPGGSLRLSCAASGFTFSSYSMNWVRQAPGKGLEWVSSISSSSSYIYYADSVKGRFTISRDNAKNSLYLQMNSLRAEDTAVYYCAREGYYYGSGSYLDYWGQGTLVTVSS VL: QSVVTQPPSVSGAPGQRVTISCTGSSSNIGAGYDVHWYQQLPGTAPKLLIYGNSNRPSGVPDRFSGSKSGTSASLAITGLQAEDEADYYCQSYDSSLSVVFGGGTKLTVL	3.71 nM

Task: So what's the measured Kd for this one? ADI-14363 (antibody, V domains shown, full-length IgG; also called Ab 31) VH: QVQLVESGGGLVKPGGSLRLSCAASGFTFSDYYMSWIRQAPGKGLEWVSYISGGGTYTKYADSVKGRFTISRDNAKNSVYLQMNSLRAEDTAVYYCARDVALVGWELRYGMDVWGQGTTVTVSS VL: ETTLTQSPGTLSLSPGERATLSCRARENVNSSYLAWYQQKPGQAPRLLIYGASSRATGIPDRFSGSGSGTDFTLTISRLEPEDFAVYYCQQYAISPWTFGQGTKVEIK
Output: 5.35 nM

Task: What measured Kd goes with ADI-25547 (antibody, V domains shown, full-length IgG) VH: EVQLLESGGGLIQPGGSLRLSCAASGFTVSSNYMSWVRQAPGKGLEWVSVIYSGGSTYYADSVKGRFTISRDNSKNTLYLQMNSLRAEDTAVYYCARGGIADAFDIWGQGTMVTVSS VL: ETTLTQSPSSVSASVGDRVTITCRASQGISSWLAWYQQKPGKAPKLLIYAASSLQSGVPSRFSGSGSGTDFTLTISSLQPEDFATYYCQQANSFPRTFGQGTKLEIK ?
Output: 20.3 nM

Task: What does the record list as Kd for ADI-19427 (antibody, V domains shown, full-length IgG) VH: EVQLVESGGGLVKPGGSLRLSCAASGFTFSSYSMNWVRQAPGKGLEWVSSISSSSSFISYADSVKGRFTISRDSAKNSLYLQMNSLRAEDTAVYYCARDHPNWNGLAYFDYWGQGTLVTVSS VL: QSVLTQPPSISGAPGQRVTISCTGSSSNIGAGYDVQWHQQLPGTAPKLLIYGNSNRPSGVPDRFSGSKSGTSASLAITGLQAEDEADYYCQSYDSSLSGWVFGGGTKLTVL ?
Output: 0.5 nM

Task: Reported Kd for ADI-19420 (antibody, V domains shown, full-length IgG) VH: EVQLLESGGGLVKPGGSLRLSCAASGFTFSSYSMNWVRQAPGKGLEWVSSISSSSSYIYYADSVKGRFTISRDNAKNSLYLQMNSLRAEDTAVYYCARVGWGYSYGYWFDPWGQGTLVTVSS VL: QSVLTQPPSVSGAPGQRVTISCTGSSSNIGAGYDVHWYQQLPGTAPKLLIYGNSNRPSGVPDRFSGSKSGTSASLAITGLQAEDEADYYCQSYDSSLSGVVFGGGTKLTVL : what is it?
Output: 2.47 nM

Task: Using the record for ADI-24860 (antibody, V domains shown, full-length IgG; also called Ab 420) VH: EVQLLESGGGLVKPGGSLRLSCAASGLTFSDYYMSWIRQAPGKGLEWVSYISGGSSYSNYADSVKGRFTISRDNAKNSLYLQMNSLRAEDTAVYYCARGYCSGSSCYEAFDIWGQGTTVTVSS VL: SYVLTQPPSVSGAPGQRVTISCTGSSSNIGAGFDVHWYQQLPGTAPKLLIYGNSDRPSGVPDRFSGSKSGTSASLAITGLQAEDEADYYCQSYDSSLSGYVFGTGTKVTVL , report its Kd.
Output: 1.56 nM

Task: Please report the recorded Kd for ADI-19431 (antibody, V domains shown, full-length IgG) VH: EVQLVESGGGLVKPGGSLRLSCAASGFTFSSYSMNWVRQAPGKGLEWVSSISSSSSYIYYADSVKGRFTISRDNAKNSLYLQMNSLRAEDTAVYYCARELYDYVWGSYRDYWGQGTLVTVSS VL: QPGLTQPPSVSGAPGQRVTISCTGSSSNIGAGYDVHWYQQLPGTAPKLLIYGNSNRPSGVPDRFSGSKSGTSASLAITGLQAEDEADYYCQSYDSSLSGSVFGGGTKVTVL .
Output: 3.16 nM

Task: Fill in the blank: the reported Kd of ADI-19448 (antibody, V domains shown, full-length IgG) VH: EVQLLESGGGLVKPGGSLRLSCAASGFTFSSYSMNWVRQAPGKGLEWVSSISSSSSYIYYADSVKGRFTISRDNAKNSLYLQMNSLRAEDTAVYYCARELLDPGIAAAGFDYWGQGTLVTVSS VL: QSVLTQPPSVSGAPGQRVTISCTGSSSNIGAGYDVHWYQQLPGTAPKLLIYGNSNRPSGVPDRFSGSKSGTSASLAITGLQAEDEADYYCQSYDSSLSVNYVFGTGTKVTVL is ____.
Output: 5.58 nM
